The measured values listed here are drawn from PubChem BioAssay (NCI).

Test system: SK-MEL-5 melanoma
ASSAY: NCI tumour cell line growth inhibition, 48 h; in the data active means GI50 below about 0.43 µM; inactive means the rest
Outcomes you can answer with include only these: True (active), False (inactive)

>>> print(df.to_string())
                                   compound  group_label
0  C/C=C(\C)C(=O)N[C@H]1[C@@H](OC(C)=O)C[C@]2(C)C3CC[C@@]4(C)C(CC[C@@H]4C(C)N(C)C)C3CCC2[C@H]1O (some centres undefined)        False

IN: Look up the recorded call for CC(=O)C1CC2(c3ccc(C)cc3)C(c3ccc(C)cc3)=C(c3ccc(C)cc3)C1(c1ccc(C)cc1)S2=O (centres undefined) in this test.
OUT: False

IN: Look up the recorded call for Cc1cc(C)c(O)c(CNCCCCCCNCc2cc(C)cc(C)c2O)c1 in this test.
OUT: False

IN: Look up the recorded call for CCN(CC)CCOc1ccc(Nc2ncc3cc(-c4ccc(O)cc4)c(=O)n(C)c3n2)cc1 in this test.
OUT: False

IN: Look up the recorded call for COc1c(C)c2c(c(O)c1C/C=C(\C)CCC(=O)OCCN1CCOCC1)C(=O)OC2 in this test.
OUT: True

IN: Look up the recorded call for O=C(c1cc(F)c(Cl)cc1Cl)N1N=C(c2ccccc2)CC1(O)c1ccccc1 (centres undefined) in this test.
OUT: False

IN: Look up the recorded call for COc1cc(Cl)cc(-c2nn(C(=O)NCCN3CCN(C)CC3)cc2-c2ccncc2)c1 in this test.
OUT: False

IN: Look up the recorded call for c1ccc(C(=NNc2nc3ccccc3o2)c2ccccn2)nc1 in this test.
OUT: True

IN: Look up the recorded call for CC1(C)OC[C@@H]([C@@]2(CO[Si](C)(C)C(C)(C)C)CC=CC(=O)O2)O1 in this test.
OUT: False

IN: Look up the recorded call for O=[N+]([O-])c1ccc(-c2nc(N(CCO)CCO)c3ccccc3n2)o1 in this test.
OUT: True

IN: Look up the recorded call for Nc1nc(Nc2ccc3c(c2)CC[C@@H](N2CCCC2)CC3)nn1-c1cc2c(nn1)-c1ccccc1CCC2 in this test.
OUT: False

IN: Look up the recorded call for CC(=O)[CH-]C(=O)c1ccccc1.CC(=O)[CH-]C(=O)c1ccccc1.CC(=O)[CH-]C(=O)c1ccccc1.[Tl+3] in this test.
OUT: False

IN: Look up the recorded call for NCCCC(=O)Nc1ccncc1 in this test.
OUT: False

IN: Look up the recorded call for Cn1ccc2c(NCCN)c3c(c(NCCN)c21)C(=O)c1ccccc1C3=O in this test.
OUT: False

IN: Look up the recorded call for COc1ccc(CNc2nc3cc(N)cc(N)c3nc2-c2ccccc2)cc1OC in this test.
OUT: False
